Target: EcR-RXR (EcR-LgBiT / RXR-SmBiT) (Drosophila melanogaster)
Construct: full-length EcR with C-terminal LgBiT (pFC34K-EcR) and RXR with C-terminal SmBiT (pFC36K-RXR), expressed in HEK293T cells; heterodimer; probably human RXR-alpha
Sequence (P34021 1-878): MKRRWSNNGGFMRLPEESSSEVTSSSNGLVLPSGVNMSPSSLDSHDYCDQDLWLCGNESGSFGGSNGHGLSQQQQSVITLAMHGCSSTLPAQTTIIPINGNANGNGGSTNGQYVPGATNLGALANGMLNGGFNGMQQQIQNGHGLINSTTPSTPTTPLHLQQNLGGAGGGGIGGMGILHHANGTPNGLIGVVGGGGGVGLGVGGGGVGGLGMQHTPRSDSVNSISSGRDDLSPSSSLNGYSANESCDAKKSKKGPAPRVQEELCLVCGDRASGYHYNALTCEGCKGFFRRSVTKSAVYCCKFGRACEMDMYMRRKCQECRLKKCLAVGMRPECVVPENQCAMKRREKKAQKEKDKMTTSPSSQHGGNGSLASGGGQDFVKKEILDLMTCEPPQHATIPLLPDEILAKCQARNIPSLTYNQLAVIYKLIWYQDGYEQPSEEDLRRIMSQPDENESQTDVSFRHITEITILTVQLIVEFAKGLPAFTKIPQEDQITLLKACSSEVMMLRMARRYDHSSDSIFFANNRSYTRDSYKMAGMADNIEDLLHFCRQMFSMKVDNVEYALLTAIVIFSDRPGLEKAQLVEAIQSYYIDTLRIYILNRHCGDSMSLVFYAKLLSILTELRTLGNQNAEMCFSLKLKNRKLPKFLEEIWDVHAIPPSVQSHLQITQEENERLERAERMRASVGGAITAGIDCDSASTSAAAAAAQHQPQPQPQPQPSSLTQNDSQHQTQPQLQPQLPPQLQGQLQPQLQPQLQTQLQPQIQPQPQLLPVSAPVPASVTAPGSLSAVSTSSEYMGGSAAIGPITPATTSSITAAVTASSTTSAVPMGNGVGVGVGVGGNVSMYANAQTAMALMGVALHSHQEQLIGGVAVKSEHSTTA
Sequence (P19793 1-462 partner): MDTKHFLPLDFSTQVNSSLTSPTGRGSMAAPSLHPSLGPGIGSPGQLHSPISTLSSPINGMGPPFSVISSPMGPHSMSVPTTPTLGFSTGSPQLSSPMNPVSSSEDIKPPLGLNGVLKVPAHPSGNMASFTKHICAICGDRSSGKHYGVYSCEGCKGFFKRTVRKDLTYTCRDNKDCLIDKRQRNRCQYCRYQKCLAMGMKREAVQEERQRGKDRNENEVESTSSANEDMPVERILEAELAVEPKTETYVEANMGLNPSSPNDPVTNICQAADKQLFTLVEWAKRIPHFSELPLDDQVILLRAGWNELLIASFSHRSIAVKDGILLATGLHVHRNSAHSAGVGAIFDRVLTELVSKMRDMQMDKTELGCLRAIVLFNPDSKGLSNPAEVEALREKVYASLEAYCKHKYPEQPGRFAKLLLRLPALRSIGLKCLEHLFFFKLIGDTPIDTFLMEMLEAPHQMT
Assay: NanoBiT split-luciferase assay of ligand-induced EcR-RXR heterodimerization in live HEK293T cells
Format: cell-based
property: pEC50
pEC50 is a log-scale quantity: -log10 of the concentration expressed in molar.

Task item: Which measured pEC50 value corresponds to Cc1cc(C)cc(C(=O)N(NC(=O)c2ccc3c(c2C)CCCO3)C(C)(C)C)c1 [CF, chromafenozide] ?
Reply: 5.32
